target: HSV-1 protease (Human herpesvirus 1); assay: biochemical; conditions: anion (Na+ salt) 0.2M; 37° C., pH 7.5; substrate 53 μM; relative to no additive; 200000 µM
Sequence (P10210 1-247): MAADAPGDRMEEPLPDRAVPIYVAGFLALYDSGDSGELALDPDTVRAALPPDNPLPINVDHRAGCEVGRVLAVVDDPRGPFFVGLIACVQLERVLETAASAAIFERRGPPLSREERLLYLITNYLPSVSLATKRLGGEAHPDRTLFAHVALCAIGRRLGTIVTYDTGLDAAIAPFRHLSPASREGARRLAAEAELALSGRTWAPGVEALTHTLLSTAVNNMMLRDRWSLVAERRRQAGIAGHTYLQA
Where a name gives a salt, the structure may show the parent alone.
Consider the following compounds and their measured Relative activity of HSV-1 protease readings.
READOUT_NAME: Relative activity of HSV-1 protease

1) O=P(O)(O)O [HPO4^2- /PO4^3-, sodium phosphate]; 5.68
2) O=S(=O)(O)O [SO4^2-, sulfate]; 4.70
3) Cl [Cl^-, Chloride]; 0.96
4) I [I^-, iodide]; 0.07
5) [O-][Cl+3]([O-])([O-])O [ClO4^-, perchlorate]; 0.06
6) O=P(O)(O)OP(=O)(O)O; 7.32
7) F; 6.15

---

Consider the following compounds and their measured activity at 200000 µM readings.
target: HSV-1 protease (Human herpesvirus 1); assay: biochemical; conditions: pH 7.5, read-out: Relative activity of HSV-1 protease
READOUT_NAME: activity at 200000 µM (%)

1) CC(=O)O; 171
2) O=C(O)CCC(=O)O [Succinate]; 397
3) N[C@H](CCC(=O)O)C(=O)O [D-glutamate]; 290
4) N[C@@H](CCC(=O)O)C(=O)O [L-glutamate]; 245
5) O=C(O)CC(C(=O)O)C(O)C(=O)O (centres unmarked) [Isocitrate]; 772
6) O=C(O)C[C@H](O)C(=O)O [L-malate]; 404
7) O=C(O)/C=C(/CC(=O)O)C(=O)O [cis-Aconitrate]; 506
8) O=C(O)C[C@@H](O)C(=O)O [D-malate]; 409

---

target: HSV-1 protease (Human herpesvirus 1); assay: biochemical
Counter-ions that a name gives are not always drawn.
READOUT_NAME: effect of anion/salt on HSV-1 protease activity (in words)

1) O=S(=O)(O)O [SO4^2-, sulfate]; strong activation
2) O=C(O)CC(O)(CC(=O)O)C(=O)O [Citrate, sodium citrate]; strong activation
3) O=P(O)(O)O [HPO4^2- /PO4^3-, sodium phosphate]; strong activation

---

biological target: HSV-1 protease (Human herpesvirus 1); assay: biochemical
READOUT_NAME: effect of co-solvent on HSV-1 protease activity (in words)

1) CN(C)C=O [Dimethyl formamide]; strongly inactivating
2) CCO [Ethanol]; strongly inactivating

These entries and their values trace back to patent US5618685A.
